Sequence of the target: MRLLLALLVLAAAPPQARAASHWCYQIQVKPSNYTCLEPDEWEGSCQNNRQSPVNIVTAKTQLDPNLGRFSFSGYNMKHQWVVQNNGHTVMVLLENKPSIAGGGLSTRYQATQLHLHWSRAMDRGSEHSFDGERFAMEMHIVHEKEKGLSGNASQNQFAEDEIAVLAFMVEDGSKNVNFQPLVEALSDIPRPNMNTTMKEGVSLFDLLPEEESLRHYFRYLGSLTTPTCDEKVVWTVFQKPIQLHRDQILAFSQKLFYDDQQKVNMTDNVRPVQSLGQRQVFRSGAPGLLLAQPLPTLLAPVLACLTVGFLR
Assembled from different publications: Ki for the protein given by its sequence.
experimental-readout: Ki (nM)

molecule="NS(=O)(=O)c1ccc(N/C(S)=N/C(Cc2ccc(O)cc2)C(=O)O)cc1 (stereo unspecified)" assay_target="the protein given by its sequence" quantitative_result=13
molecule=C[C@H](CCC(=O)Nc1ccc(S(N)(=O)=O)cc1)[C@H]1CC[C@H]2[C@@H]3[C@@H](O)C[C@@H]4C[C@H](O)CC[C@]4(C)[C@H]3CC[C@]12C assay_target="the protein given by its sequence" quantitative_result=164

(A) CC(O)C(NC(=S)Nc1ccc(S(N)(=O)=O)cc1)C(=O)O (stereo unspecified)
(B) NCC(=O)Nc1ccccc1S(N)(=O)=O
Task item: Field: lower Ki | Options: A / B State the label of the item chosen.
Reply: A
(A: 16 nM, B: 245 nM)

* * *

- assay-target: Carbonic anhydrase 4 (Bos taurus, UniProt Q95323)
- Sequence (Q95323 whole entry): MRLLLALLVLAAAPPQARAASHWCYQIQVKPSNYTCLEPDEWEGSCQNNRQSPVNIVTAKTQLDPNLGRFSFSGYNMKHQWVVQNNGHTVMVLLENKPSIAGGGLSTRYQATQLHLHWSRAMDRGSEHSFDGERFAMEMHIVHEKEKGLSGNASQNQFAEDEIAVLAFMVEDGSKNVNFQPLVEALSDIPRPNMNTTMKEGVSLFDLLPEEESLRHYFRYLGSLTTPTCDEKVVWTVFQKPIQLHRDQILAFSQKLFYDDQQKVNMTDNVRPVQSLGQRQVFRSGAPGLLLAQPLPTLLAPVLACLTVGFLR
Assembled from different publications: Ki for Carbonic anhydrase 4 (Bos taurus, UniProt Q95323).
experimental-readout: Ki (nM)

# count of solved cases: 3
smiles_input=NS(=O)(=O)c1nc2ccc(OS(=O)(=O)C(F)(F)C(F)(F)C(F)(F)C(F)(F)C(F)(F)C(F)(F)C(F)(F)C(F)(F)F)cc2s1 experimental_readout=Ki quantitative_result=8
smiles_input=C[C@H](CCC(=O)Nc1nnc(S(N)(=O)=O)s1)[C@H]1CC[C@H]2[C@@H]3[C@H](O)C[C@@H]4C[C@H](O)CC[C@]4(C)[C@H]3CC[C@]12C experimental_readout=Ki quantitative_result=240
smiles_input=CCc1cc(-c2ccccc2)cc(CC)[n+]1CC(=O)Nc1cccc(S(N)(=O)=O)c1 experimental_readout=Ki quantitative_result=310

(I) NS(=O)(=O)c1ccc(NC(=O)CN(CCOCCOCCN(CC(=O)O)CC(=O)Nc2ccc(S(N)(=O)=O)cc2F)CC(=O)O)c(F)c1
(II) C[C@H](CCC(=O)Nc1ccc(S(N)(=O)=O)cc1)[C@H]1CC[C@H]2[C@@H]3[C@H](O)C[C@@H]4C[C@H](O)CC[C@]4(C)[C@H]3CC[C@]12C
Task item: Field: lower Ki | Options: I / II State the label of the item chosen.
Reply: I
(I: 16 nM, II: 420 nM)

(P) CN(CC(=O)NS(=O)(=O)c1ccc(CO)cc1)C(=N)N
(Q) NS(=O)(=O)c1ccc(COC(=O)c2c(F)c(F)c(F)c(F)c2F)cc1
Task item: Given the listed records, identify the one among P and Q with higher Ki. State the label of the item chosen.
Reply: Q
(Q: 410 nM, P: 89 nM)
